Assay: The reaction rate constant(K) by measuring competition with nitroblue tetrazolium of the superoxide radicals formed by xanthine oxidase/xanthine
Format: ADME
readout_kind: K (M⁻¹ s⁻¹)
Answer with a number only, understood to be in M⁻¹ s⁻¹.

// Cc1c(C)c2c(c(C)c1O)CCC(C)(CC(=O)[N-][N+](C)(C)C)O2 (stereo not given) : K value = 28000

// Cc1c(C)c2c(c(C)c1O)CCC(C)(CC[S+](C)C)O2.Cc1ccc(S(=O)(=O)[O-])cc1 (stereo not given) : K value = 21000

// Cc1c(C)c2c(c(C)c1O)CCC(C)(CC[P+](C)(C)C)O2.[Br-] (stereo not given) : K value = 24000

// CC[P+](CC)(CC)CCC1(C)CCc2c(C)c(O)c(C)c(C)c2O1.[Br-] (stereo not given) : K value = 22000

// CCCCCCCCCCCCCCCCCCOC1=C(O)[C@@H](C(O)CO)OC1=O (stereo not given in full) : K value = 21000

###

Experiment: The reaction rate constant (K) by measuring competition with nitroblue tetrazolium of the superoxide radicals formed by xanthine oxidase/xanthine
Type: ADME
Please provide measured log10(K) for the entries that follow.
// stored as log10 of K expressed in M⁻¹ s⁻¹

// Cc1c(C)c2c(c(C)c1O)CCC(C)(C(=O)O)O2 (configuration not stated) : log10(K) value = 4.30

// Cc1c(C)c2c(c(C)c1O)CCC(C)(CC[N+](C)(C)C)O2.Cc1ccc(S(=O)(=O)[O-])cc1 (configuration not stated) : log10(K) value = 4.38

// "Cc1c(C)c2c(c(C)c1O)CC[C@@](C)(CC[N+](C)(C)C)O2.Cc1ccc(S(=O)(=O)[O-])cc1" : log10(K) value = 4.32

// "Cc1c(C)c2c(c(C)c1O)CC[C@](C)(CC[N+](C)(C)C)O2.Cc1ccc(S(=O)(=O)[O-])cc1" : log10(K) value = 4.26

// Cc1c(C)c2c(c(C)c1O)CCC(C)(CCN(C)C)O2 (configuration not stated) : log10(K) value = 4.43

// CSCCC1(C)CCc2c(C)c(O)c(C)c(C)c2O1 (configuration not stated) : log10(K) value = 2.90

// C[N+](C)(C)CC(O)C1OC(=O)C(O)=C1[O-] (configuration not stated) : log10(K) value = 5.78
